Entry source: ChEMBL document CHEMBL3988442

system: Plasmodium falciparum; experiment: Calibr Malaria Delayed Death Assay SOP; assay type: functional, organism-based; design: scale not given: in the data most compounds retested in dose-response had high values; conditions: concentration 4.99e-06 (unit not given; other assays of the set use mol/L)
The campaign covered roughly 38,000 compounds. About 1,200 (3.2%) showed an effect of 50% or more. The median lay at about -58%. For the sample, strong results were picked, then their nearest neighbours and some compounds at random.
Short version: Percent Effect at least -20% is Condition met, less is Condition not met.

Please review the entries below; each comes with its answer.
CN(C)c1nc(N)nc(CN2CCCC(c3ccccc3)CC2)n1 (centres undefined) : Condition met
O=C(c1cccc(Cl)c1Cl)N1CCN(CC(O)Cn2cccn2)CC1 (centres undefined) : Condition met
CN(C)c1nc(N)nc(CN2CCCC2c2cccs2)n1 (centres undefined) : Condition met
Cc1c(C)n(CC(O)CN2CCCCCC2)c2c(Cl)cccc12 (centres undefined) : Condition met
Cc1c(C)n(CC(O)CN2CCC(C)CC2)c2c(Cl)cccc12 (centres undefined) : Condition met

Check if Percent Effect >= -20% (inclusive). Item: COc1cc(OC)c(C2CC(=O)Oc3cc(C)[nH]c(=O)c32)c(OC)c1 (centres undefined)
Condition not met

Check if Percent Effect >= -20% (inclusive). Item: CCOCCC(=O)N1CCN(CC(C)O)CC1 (centres undefined)
Condition not met

Check if Percent Effect >= -20% (inclusive). Item: "O=C1CCCN1Cc1ncn2c1CN(C(=O)Cc1ccccc1)CCC2"
Condition not met

Check if Percent Effect >= -20% (inclusive). Item: "CCOCCN1CCN(CCc2ccc3c(c2)CCO3)CC1"
Condition not met
